system: Streptococcus pneumoniae; test: Antibacterial activity against Streptococcus pneumoniae ATCC 10015; type: functional
Listed here: items and their measured MIC.
The reply should be a number in µg/mL, with the unit left off.

[[record]]
given_smiles = "CCNC(=O)c1cc(-c2sc(-c3cccnc3)nc2-c2ccccc2)n[nH]1"
recorded_result = 2

[[record]]
given_smiles = "CCNC(=O)c1cc(-c2sc(-c3cccnc3)nc2-c2ccc(Cl)cc2)n[nH]1"
recorded_result = 4


Next compound, please.
Consider CCNC(=O)c1cc(-c2sc(-c3cccnc3)nc2[C@@H]2CCCCN2)n[nH]1 . Its measured MIC is 1.5
